List of JHH-5 Internalization (MFI), Day 14 in mouse plasma values.
Target: human glypican-3 (GPC3) (human, UniProt P51654 25-554); also: test concentration or dose not given here
Assay: cell-based or functional assay
// note: answer is a bare numeric in MFI

{"BINDER": "H18L6_LC_G34Q mAb, v40208 (antibody, human IgG1, kappa, V domains shown, Full-size IgG1/kappa) VH: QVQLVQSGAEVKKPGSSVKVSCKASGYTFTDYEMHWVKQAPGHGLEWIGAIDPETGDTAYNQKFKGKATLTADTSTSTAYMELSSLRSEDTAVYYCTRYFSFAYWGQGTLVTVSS VL: EIVLTQSPATLSLSPGERATISCRSSQSLRHSNQNTYLQWYQQKPGQAPRLLIYKVSNRFSGVPARFSGSGSGTDFTLTISSLEPEDFAVYFCYQSKHVPYTFGGGTKVEIKR", "UNITS_SYMBOL": "MFI", "VALUE_MEASURED": 9980}
{"BINDER": "H18L6_LC_G34A mAb, v40212 (antibody, human IgG1, kappa, V domains shown, M3-H18L6 chains with the stated light chain point mutation, IgG1/kappa) VH: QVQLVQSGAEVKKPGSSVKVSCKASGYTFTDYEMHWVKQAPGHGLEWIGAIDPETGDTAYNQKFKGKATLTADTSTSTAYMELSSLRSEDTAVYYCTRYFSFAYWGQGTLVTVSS VL: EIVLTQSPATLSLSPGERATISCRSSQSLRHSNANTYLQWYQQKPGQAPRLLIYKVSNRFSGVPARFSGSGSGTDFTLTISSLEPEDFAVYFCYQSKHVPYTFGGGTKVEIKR", "UNITS_SYMBOL": "MFI", "VALUE_MEASURED": 7290}
{"BINDER": "H18L6_LC_G34D mAb, v40203 (antibody, human IgG1, kappa, V domains shown) VH: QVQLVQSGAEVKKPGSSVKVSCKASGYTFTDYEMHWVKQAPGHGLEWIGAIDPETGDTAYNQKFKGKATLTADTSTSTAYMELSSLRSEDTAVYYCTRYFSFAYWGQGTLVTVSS VL: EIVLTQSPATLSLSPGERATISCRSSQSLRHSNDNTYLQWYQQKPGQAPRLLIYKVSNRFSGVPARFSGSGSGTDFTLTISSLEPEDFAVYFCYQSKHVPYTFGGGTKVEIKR", "UNITS_SYMBOL": "MFI", "VALUE_MEASURED": 5690}

# next binder below
## Task Entry H18L6_LC_G34K mAb, v40207 (antibody, human IgG1, kappa, V domains shown, Full-size IgG1/kappa) VH: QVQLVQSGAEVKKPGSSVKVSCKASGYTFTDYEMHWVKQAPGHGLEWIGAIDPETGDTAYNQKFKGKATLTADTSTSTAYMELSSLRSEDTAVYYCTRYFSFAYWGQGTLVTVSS VL: EIVLTQSPATLSLSPGERATISCRSSQSLRHSNKNTYLQWYQQKPGQAPRLLIYKVSNRFSGVPARFSGSGSGTDFTLTISSLEPEDFAVYFCYQSKHVPYTFGGGTKVEIKR : reported JHH-5 Internalization (MFI), Day 14 in mouse plasma = ?
## Result 11400
